As shown below, each of these variants has a reported protein stability index value.
B1: PPP2R2B (parent)
chain: PSNRSFFSEIISSISDVKFSHSGR

# Variants of: B1
# EXPERIMENT SUMMARY: protein stability index of a GFP-peptide fusion (GPS, HEK-293T) (PSI 1-6); higher = more stable;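 further: lentivirally expressed fusions sorted by FACS into six bins by GFP to DsRed ratio, PSI derived from sequencing read proportions per bin multiplied by bin number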
# EXPERIMENTAL SETUP: c terminus: a fixed tail appended
Would you mind answering with just the numeric figure?

Looking up S5W , I see its protein stability index listed as 2.1

Looking up F6V , I see its protein stability index listed as 2.66

Looking up S20A , I see its protein stability index listed as 2.39

Looking up S2C , I see its protein stability index listed as 2.4

Looking up I11V , I see its protein stability index listed as 3.26

Looking up S13L , I see its protein stability index listed as 2.45

Looking up K18R , I see its protein stability index listed as 2.55

Looking up I10N , I see its protein stability index listed as 3.09

Looking up I11Q , I see its protein stability index listed as 3.04

Looking up S8H , I see its protein stability index listed as 2.31

Looking up S8R , I see its protein stability index listed as 2.33

Looking up D16K , I see its protein stability index listed as 2.13

Looking up H21F , I see its protein stability index listed as 1.88

Looking up I14E , I see its protein stability index listed as 4

Looking up S2M , I see its protein stability index listed as 2.17

Looking up S22Y , I see its protein stability index listed as 2.2

Looking up I11Y , I see its protein stability index listed as 3.4

Looking up R4V , I see its protein stability index listed as 2.47

Looking up S15C , I see its protein stability index listed as 1.81

Looking up S8M , I see its protein stability index listed as 2.43

Looking up I11M , I see its protein stability index listed as 2.69

Looking up F6I , I see its protein stability index listed as 2.81

Looking up S8G , I see its protein stability index listed as 2.41
